Where these numbers come from: the supplement of paper PMC6555819

System: PXR homodimer (NR concentration 270 nM)
protocol description: PBM binding z-score (relative to random genomic background probes); higher = stronger binding; sequences stand for … in GC…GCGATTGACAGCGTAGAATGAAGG
# cutoff 0.6 applies to PBM binding z-score; >= gives T, < gives F

Sample answers from the record:
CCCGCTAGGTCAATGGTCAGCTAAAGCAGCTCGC : F
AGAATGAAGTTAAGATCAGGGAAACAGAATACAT : F
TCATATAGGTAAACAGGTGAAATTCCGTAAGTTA : T
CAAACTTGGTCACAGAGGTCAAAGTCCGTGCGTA : T

Hi team, for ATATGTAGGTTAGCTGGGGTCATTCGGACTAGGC , is the recorded PBM binding z-score at or above 0.6? T

hey, is PBM binding z-score for this one >= 0.6? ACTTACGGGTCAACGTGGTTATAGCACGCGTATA F

###

Tested on: PPARg:RXRa (NR concentration 180 nM, RXRa partner concentration 90 nM)
protocol description: PBM binding z-score (relative to random genomic background probes); higher = stronger binding; sequences stand for … in GC…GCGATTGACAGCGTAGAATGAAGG
Answer Criterion not met if PBM binding z-score is under 6, and Criterion met if it is 6 or more.

Look over these answered cases.
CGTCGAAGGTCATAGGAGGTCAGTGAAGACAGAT : Criterion not met
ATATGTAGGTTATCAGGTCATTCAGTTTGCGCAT : Criterion met

Tell me whether PBM binding z-score is at least 6 here: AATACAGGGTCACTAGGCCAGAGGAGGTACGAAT Criterion met

Item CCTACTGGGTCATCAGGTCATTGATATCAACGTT with PBM binding z-score of 6 or above? Criterion met

Does the reported PBM binding z-score for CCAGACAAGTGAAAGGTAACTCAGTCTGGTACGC fall at or above the 6 mark? Criterion not met

Has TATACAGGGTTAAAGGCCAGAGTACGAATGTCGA a recorded PBM binding z-score greater than or equal to 6? Criterion not met

Please indicate if the recorded PBM binding z-score for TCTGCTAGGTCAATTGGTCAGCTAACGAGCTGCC meets or exceeds 6. Criterion not met

State whether the measured PBM binding z-score reaches 6, counting equality as reaching it, for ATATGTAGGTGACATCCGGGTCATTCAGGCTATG Criterion met

Test whether the sequence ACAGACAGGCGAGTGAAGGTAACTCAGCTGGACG records PBM binding z-score of 6 or higher. Criterion not met

For this sequence, is measured PBM binding z-score 6 or higher? GCGACTGGGGCAGAGCAGGTTACCATAAGGTTGG Criterion not met

// inclusive: PBM binding z-score at least 6? input: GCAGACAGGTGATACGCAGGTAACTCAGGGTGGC Criterion not met

Dear colleague, could you confirm whether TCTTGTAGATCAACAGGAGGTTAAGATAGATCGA has PBM binding z-score at or above 6? Criterion not met

###

Tested on: PPARg:RXRa 90nM:30nM, anti-RXR (NR concentration 90 nM, RXRa partner concentration 30 nM)
protocol description: PBM binding z-score (relative to random genomic background probes); higher = stronger binding; sequences stand for … in GC…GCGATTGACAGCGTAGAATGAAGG
Reported PBM binding z-score values follow for various sequences

Example entries and their recorded answers appear below.
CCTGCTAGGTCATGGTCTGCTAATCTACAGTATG : 2.49
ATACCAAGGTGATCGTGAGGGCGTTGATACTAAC : -0.238
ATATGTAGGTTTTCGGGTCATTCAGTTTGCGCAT : 3.5

# get_value(readout= PBM binding z-score, system= PPARg:RXRa 90nM:30nM, anti-RXR (NR concentration 90 nM, RXRa partner concentration 30 nM)) for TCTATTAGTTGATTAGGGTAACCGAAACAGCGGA 2.87

For PPARg:RXRa 90nM:30nM, anti-RXR (NR concentration 90 nM, RXRa partner concentration 30 nM), provide PBM binding z-score of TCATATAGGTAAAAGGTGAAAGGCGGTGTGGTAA please. 9.94

Request: PBM binding z-score, test system PPARg:RXRa 90nM:30nM, anti-RXR (NR concentration 90 nM, RXRa partner concentration 30 nM), entry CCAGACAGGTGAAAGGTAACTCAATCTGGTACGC 5.99

// fetch PPARg:RXRa 90nM:30nM, anti-RXR (NR concentration 90 nM, RXRa partner concentration 30 nM) PBM binding z-score for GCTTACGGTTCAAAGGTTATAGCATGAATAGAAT 5.08
